I'd appreciate it if you could supply inhibition at 10 µM values for the items below.
Target: human orexin 1 receptors (Homo sapiens, UniProt O43613)
Sequence (O43613 whole entry): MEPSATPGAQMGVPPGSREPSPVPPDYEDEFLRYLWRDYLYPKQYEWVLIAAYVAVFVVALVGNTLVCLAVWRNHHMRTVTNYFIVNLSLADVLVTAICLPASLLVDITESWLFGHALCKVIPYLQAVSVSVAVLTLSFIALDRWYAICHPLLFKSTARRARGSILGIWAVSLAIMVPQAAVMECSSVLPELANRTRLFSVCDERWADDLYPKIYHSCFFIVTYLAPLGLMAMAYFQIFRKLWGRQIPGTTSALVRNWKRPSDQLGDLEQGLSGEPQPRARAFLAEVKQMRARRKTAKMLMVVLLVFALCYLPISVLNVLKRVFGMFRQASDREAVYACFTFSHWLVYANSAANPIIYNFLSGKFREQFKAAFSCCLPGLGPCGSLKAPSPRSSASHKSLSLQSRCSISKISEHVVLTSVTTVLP
Assay: Calcium accumulation in cells (FLIPR), hOx1R
Conditions: read-out: FLIPR hOx1R % inhibition value

Cc1cc(N2CCC3(CCCN(Cc4c[nH]c5ccccc45)C3=O)CC2)ccn1 : < 10%

Batch of 3 compounds: report inhibition at 10 µM for each.
1. Cc1ccnc(N2CCC3(CCCN(Cc4ccccc4-n4nccn4)C3=O)CC2)n1
2. Cc1ccnc(N2CCC3(CCCC(=O)N3Cc3cccc(N4CCCC4)n3)CC2)n1
3. Cc1ccnc(N2CCC3(CCCC(=O)N3Cc3cc(C#N)ccc3F)CC2)n1

["< 10%", "< 10%", "< 10%"]
